Hello, the source for this data is PubChem BioAssay (NCI), in case you need it.

Tested on: HCT-116 colon
Test: NCI-60 one-dose screen, 48 h (100 = growth as untreated, 0 = no growth, -100 = all killed)
Settings: 10 µM
Compounds without any hit were thinned out: in the full panel of roughly 83,000, 20% have a hit. The source made the active and inactive calls. How the source made its calls: active means growth percent below 10; inactive means the rest.
measured_parameter: growth

Reported growth, molecule O=C(Nc1cccc([N+](=O)[O-])c1)NN1CCCCCC1 : ____
94.3% (inactive)

Reported growth, molecule CCCCCCCCCCCC(c1ccccc1)N(C)C (configuration not stated) : ____
94.4% (inactive)

Reported growth, molecule CCN(CC)CCOC(=O)c1ccc(N=Nc2ccc(O)c(OC)c2)cc1 : ____
93.9% (inactive)

Reported growth, molecule CCN1CCOC1C(C)C (configuration not stated) : ____
102% (inactive)

Reported growth, molecule C/C(=N\NC(=S)N1CCCC1)c1ccccn1 : ____
22.3% (inactive)

Reported growth, molecule COc1ccc(-c2nnc(SCC(=O)c3ccccc3)o2)cc1 : ____
78.9% (inactive)

Reported growth, molecule CCOC(=O)Nc1ccc2c(c1)C(=O)N(CC)c1ccccc1O2 : ____
9.54% (active)

###

System: SF-295 CNS
Test: NCI-60 one-dose screen, 48 h
Conditions: 10 µM
Compounds without any hit were thinned out: in the full panel of roughly 83,000, 20% have a hit. Calls of active or inactive are those of the source. The calls were made as follows: active = growth percent below 10; inactive = the rest.
Return exactly one item of Yes (active), No (inactive)

Answer briefly: the call reported for Cc1ccc2nc(-c3ccc(OCC(=O)N=Nc4c(O)[nH]c5ccccc45)cc3)[nH]c2c1 in this assay.
No

Answer briefly: the call reported for CCOC(=S)Sc1ccc([N+](=O)[O-])cc1[N+](=O)[O-] in this assay.
No

Answer briefly: the call reported for COc1ccc(Cn2cc3c(c2-c2cc(OC)c(OC)c(OC)c2)CCc2cnoc2-3)cc1N in this assay.
Yes

Answer briefly: the call reported for COc1cccc(-c2nnc(COc3ccc(-c4nc5ccc(C)cc5[nH]4)cc3OC)o2)c1 in this assay.
No

Answer briefly: the call reported for CC(C)c1[nH]nc2c(NCc3ccc(-c4ccccn4)cc3)nc(SCCN(C)C)nc12 in this assay.
Yes

Answer briefly: the call reported for COc1cc(CSc2nc3ccc(Cl)cc3c(=O)n2-c2ccccc2)cc(OC)c1OC in this assay.
No

Answer briefly: the call reported for NS(=O)(=O)c1ccc(N2N=C(c3ccc(-c4ccccc4)cc3)CC2c2ccc(Cl)cc2)cc1 (stereo unspecified) in this assay.
No

Answer briefly: the call reported for CCOC(=O)[C@@H](Cc1ccccc1)NC(=O)c1[nH]c2ccc(Cl)cc2c(=O)c1C in this assay.
No

Answer briefly: the call reported for FC(F)(F)c1ccc(-c2cnc(Br)nc2NC2CCCCCC2)cc1 in this assay.
Yes

Answer briefly: the call reported for CCCCCC(CCC)COC(=O)c1ccc(OC)cc1 (stereo unspecified) in this assay.
No

Answer briefly: the call reported for CCc1nn2c(-c3ccccc3)c(-c3cc(OC)c(OC)c(OC)c3)nc2s1 in this assay.
No

Answer briefly: the call reported for CCOC(=O)c1c(C(F)(F)F)n([O-])c2ccc(OC)cc2[n+]1=O in this assay.
Yes

Answer briefly: the call reported for O=C(c1ccccc1)C(Nc1ccccc1)c1ccccc1 (stereo unspecified) in this assay.
No

Answer briefly: the call reported for CCOC(=O)c1c(O)c2cc(-c3ccccc3)nc(OCC)c2c(=O)n1C in this assay.
No

Answer briefly: the call reported for COc1ccc(-c2nnc(SC/C(=N\O)c3ccccc3)o2)cc1 in this assay.
No

Answer briefly: the call reported for C#CCn1c(-c2cccc(OCCCCl)c2)nc2c1c(=O)n(C)c(=O)n2C in this assay.
No

Answer briefly: the call reported for COc1ccc(-c2ccc(-c3ccc(C(=N)N)c(F)c3)s2)cc1 in this assay.
Yes

Answer briefly: the call reported for COc1cc(C)c2sc3ccccc3c(=O)c2c1NCCN(C)C in this assay.
No

Answer briefly: the call reported for COc1cc2nc(Sc3sc(N)nc3C)n(-c3ccc(Oc4ccccc4)cc3)c(=O)c2cc1OC in this assay.
No

Answer briefly: the call reported for CCOc1nc(-c2ccccc2)cc2c(O)c(C(=O)NC(C)C)[nH]c(=O)c12 in this assay.
No

Answer briefly: the call reported for COc1ccc(COC(=O)CC(C)C)cc1 in this assay.
No

###

Tested on: SNB-75 CNS
Assay: NCI-60 one-dose screen, 48 h (100 = growth as untreated, 0 = no growth, -100 = all killed)
Details: 10 µM
The panel holds about 83,000 compounds, 20% with a hit somewhere; the sample as a whole holds those more often.
Range-based classes on measured growth: band 1 (below 20%), band 2 (20% to below 90%), band 3 (90% or more)

In plain terms, what class is Nc1nc(SCC#CCCl)c2[nH]cnc2n1 ?
band 2

In plain terms, what class is COC(=O)[C@]12CC[C@@H](C)[C@H](C)[C@@H]1C1=CC[C@@H]3[C@@]4(C)C[C@@H](O)[C@H](O)[C@@](C)(CO)[C@@H]4[C@H](O)C[C@@]3(C)[C@]1(C)CC2 ?
band 1

In plain terms, what class is Cc1ccc(/C=C2\CN(Cc3cn(CCNc4ccnc5cc(Cl)ccc45)nn3)C/C(=C\c3ccc(C)cc3)C2=O)cc1 ?
band 1

In plain terms, what class is COc1ccc(-c2nc(-c3nc4ccc(OC)cc4[nH]3)c3ccccn23)cc1 ?
band 2

In plain terms, what class is C=C[C@]1(C)C=C2C(=O)[C@@]3(O)OC(=O)[C@@]4(CCCC(C)(C)[C@H]34)[C@@]2(O)CC1 ?
band 1

In plain terms, what class is CCOc1cc(Br)c(C(C)NC(=O)c2cccc(OC)c2)cc1OCC (stereo not given) ?
band 2

In plain terms, what class is COc1ccc(C2=Cc3ccc(OC(C)=O)cc3OC2)cc1 ?
band 3

In plain terms, what class is CCOC(=O)c1cc(-c2ccccc2)nc(N)n1 ?
band 2

In plain terms, what class is CCN(CC)CCOC(=O)c1ccc(NC(=O)Nc2cccc(Cl)c2)cc1 ?
band 2

In plain terms, what class is COc1ccc(/C=C2\SC(=S)N(CCCN3CCOCC3)C2=O)c(OC)c1 ?
band 3

In plain terms, what class is Cc1ccc(S(=O)(=O)Oc2ccccc2-c2ccccc2)cc1 ?
band 1

In plain terms, what class is COc1cc(CSc2nc3ccc(Cl)cc3c(=O)n2Cc2ccccc2)cc(OC)c1OC ?
band 1

In plain terms, what class is COc1ccc(-n2nnc3c(sc4ccccc43)c2=O)cc1 ?
band 1

In plain terms, what class is COc1ccc(NC(=O)c2sc3nc4c(cc3c2N)C(O)CCC4)cc1 (stereo not given) ?
band 3

###

Tested on: MCF7 breast
Assay: NCI-60 one-dose screen, 48 h
Conditions: 10 µM
About 83,000 compounds went through this panel and 20% of them were active in at least one assay; those are over-represented in the sample as a whole. Calls of active or inactive are those of the source. How the source made its calls: active means growth percent below 10; inactive means the rest.
Return exactly one item of active, inactive

Answer briefly: the call reported for COc1ccc(NC(=O)CCn2cnc3c(cc(-c4ccccc4)n3-c3ccccc3)c2=O)cc1 in this assay.
inactive

Answer briefly: the call reported for CCc1ccc(-c2nnc(COc3ccc(-c4nc5ccccc5[nH]4)cc3OC)o2)cc1 in this assay.
inactive

Answer briefly: the call reported for CCOc1nc(-c2ccccc2)cc2c(O)c(C(=O)N/N=C/c3ccc(OC)cc3)[nH]c(=O)c12 in this assay.
inactive

Answer briefly: the call reported for Cc1noc(C)c1-c1ccc2nc(NC(=O)[C@H]3CCN(C#N)C3)cn2c1 in this assay.
inactive

Answer briefly: the call reported for COc1ccccc1CNCCCN1C(=O)c2ccc3c4c(ccc(c24)C1=O)C(=O)N(CCCNCCNCCCN)C3=O in this assay.
active

###

Give growth for every item shown.
Tested on: HCC-2998 colon
Experiment: NCI-60 one-dose screen, 48 h (100 = growth as untreated, 0 = no growth, -100 = all killed)
Conditions: 10 µM
This is part of a sample that, as a whole, favours compounds with a hit. Of some 83,000 tested, about 20% had one in any assay.
The answer is to be given in %; state only the numeric part.

Reported growth, compound COc1cc(/C=C/C(=O)c2cc(-c3ccc(C(F)(F)F)cc3)ccc2O)cc(OC)c1OC : ____
94.6

Reported growth, compound COc1cc2ccnc(C=O)c2cc1OC : ____
104

Reported growth, compound c1ccc(COCC[P+](c2ccccc2)(c2ccccc2)c2ccccc2)cc1 : ____
6.68

Reported growth, compound COc1ccc(C2=NNC(c3sc(Cl)nc3Cl)C2)cc1 (stereo unspecified) : ____
72.1

Reported growth, compound CCCCCC(=O)N1c2ccccc2NC2=C(C(=O)CC(c3ccc(OC)c(OC)c3)C2)C1c1ccc(C(F)(F)F)cc1 (stereo unspecified) : ____
81.2

Reported growth, compound COC(=O)c1cnc2c(c1)Oc1ccc(Cl)cc1-c1cc(C)nn1-2 : ____
92.1

Reported growth, compound CCOC(=O)c1cc2c(n1Cc1ccccc1)-c1oncc1CC2 : ____
83.6

Reported growth, compound CCN(CCCNC(=O)Cc1cc(=O)oc2cc(N(C)C)ccc12)CCNc1ccnc2cc(Cl)ccc12 : ____
79.5

Reported growth, compound O=c1cc(CSc2nnc(-c3ccccc3)n2-c2ccc(F)cc2)c2ccc3ccccc3c2o1 : ____
86.9

Reported growth, compound COc1ccc(-c2nnc(SC/C(=N\O)c3ccccc3)o2)cc1 : ____
94

Reported growth, compound Nc1nsc(C(=O)c2ccc(O)cc2)n1 : ____
98.7

Reported growth, compound O=C(OCc1ncc(-c2ccc(C(F)(F)F)cc2)c(NC2CCCCCC2)n1)c1c(F)c(F)c(F)c(F)c1F : ____
84.2

Reported growth, compound O=C(c1ccccc1)C(Sc1ccccc1)c1ccccc1 (stereo unspecified) : ____
87.8

Reported growth, compound COc1cccc2c1C(=O)c1c(O)c3c(c(O)c1C2=O)C[C@@](O)(C(=O)COC(=O)c1cccnc1)C[C@@H]3OC1CC(N)C(O)C(C)O1 (stereo partly specified) : ____
-50.3

Reported growth, compound COc1ccc(COC(=O)CC(C)C)cc1 : ____
103

Reported growth, compound CC(C)/C(=N/O)c1ccccc1 : ____
106

Reported growth, compound COc1cc2nc(Sc3sc(N)nc3C)n(-c3ccc(Oc4ccccc4)cc3)c(=O)c2cc1OC : ____
80.4

Reported growth, compound COC(=O)[C@]12CC[C@@H](C)[C@H](C)[C@@H]1C1=CC[C@@H]3[C@@]4(C)CC(=O)[C@H](O)[C@@]5(C)COC(=C45)C[C@@]3(C)[C@]1(C)CC2 : ____
-88.1

Reported growth, compound O=c1c2cccc3c(Nc4ccc(Br)cn4)ccc(c32)c2nc3ccccc3n12 : ____
74.8

Reported growth, compound C=CCN1C(=O)/C(=C\c2ccc3c(c2)CCC3)SC1=S : ____
106

Reported growth, compound COc1cc(-c2nc3ccccc3[nH]2)ccc1OCc1nnc(-c2ccc(Br)cc2)o1 : ____
102

Reported growth, compound CCC1(C)OC(=O)NC1=O (stereo unspecified) : ____
99

Reported growth, compound COc1ccc(Nc2nc(NCc3ccccc3)c3ccccc3n2)cc1 : ____
91.5

Reported growth, compound Nc1nc2c(nnn2C2CC(O)C(CO)O2)c(=O)[nH]1 (stereo unspecified) : ____
51.3

Reported growth, compound Cc1ccc([P+](Cc2ccc([N+](=O)[O-])cc2)(c2ccc(C)cc2)c2ccc(C)cc2)cc1 : ____
31.3

Reported growth, compound COc1ccc(-c2[nH]ncc2-c2cc(OC)c(OC)c(OC)c2)cc1 : ____
-3.98
